The origin of these recorded values is ChEMBL document CHEMBL4732197.

Assay system Human immunodeficiency virus type 1 reverse transcriptase (Human immunodeficiency virus 1); read-out recorded as IC50.
quantity name: IC50 (nM)

[[record]]
compound = "Cc1cc(/C=C/C#N)cc(C)c1Oc1nc(Nc2ccc(CN3CCN(S(N)(=O)=O)CC3)cc2)nc2ccsc12"
quantity_name = "IC50"
measurement = 961

[[record]]
compound = "Cc1cc(/C=C/C#N)cc(C)c1Oc1nc(Nc2ccc(N3CCN(S(C)(=O)=O)CC3)cc2)nc2sccc12"
quantity_name = "IC50"
measurement = 239

[[record]]
compound = "Cc1cc(/C=C/C#N)cc(C)c1Oc1nc(Nc2ccc(CN3CCNCC3)cc2)nc2ccsc12"
quantity_name = "IC50"
measurement = 707

[[record]]
compound = "Cc1cc(/C=C/C#N)cc(C)c1Oc1nc(Nc2ccc(N3CCCC(NS(N)(=O)=O)C3)cc2)nc2ccsc12 (centres undefined)"
quantity_name = "IC50"
measurement = 2410


###

test: Cytotoxicity against human MT4 cells assessed as reduction in cell viability incubated for 5 days by MTT assay; assay type: cell-based; conditions: time 5 day
quantity name: CC50 at 120 h (µM)

[[record]]
compound = "Cc1cc(/C=C/C#N)cc(C)c1Oc1nc(Nc2ccc(N3CCN(S(C)(=O)=O)CC3)cc2)nc2ccsc12"
quantity_name = "CC50 at 120 h"
prefix_operator = "="
measurement = 11.5

[[record]]
compound = "Cc1cc(/C=C/C#N)cc(C)c1Oc1nc(Nc2ccc(CN3CCNCC3)cc2)nc2ccsc12"
quantity_name = "CC50 at 120 h"
prefix_operator = "="
measurement = 3.97

[[record]]
compound = "Cc1ccnc2c1NC(=O)c1cccnc1N2C1CC1"
quantity_name = "CC50 at 120 h"
prefix_operator = ">"
measurement = 15

[[record]]
compound = "Cc1cc(/C=C/C#N)cc(C)c1Oc1nc(Nc2ccc(N3CCN(S(C)(=O)=O)CC3)cc2)nc2sccc12"
quantity_name = "CC50 at 120 h"
prefix_operator = ">"
measurement = 222

[[record]]
compound = "Cc1cc(/C=C/C#N)cc(C)c1Oc1nc(Nc2ccc(N3CCN(S(N)(=O)=O)CC3)cc2)nc2sccc12"
quantity_name = "CC50 at 120 h"
prefix_operator = ">"
measurement = 223

[[record]]
compound = "O=C1Nc2ccc(Cl)cc2[C@@](C#CC2CC2)(C(F)(F)F)O1"
quantity_name = "CC50 at 120 h"
prefix_operator = ">"
measurement = 6.33

[[record]]
compound = "Cc1cc(/C=C/C#N)cc(C)c1Oc1nc(Nc2ccc(CN3CCNCC3)cc2)nc2sccc12"
quantity_name = "CC50 at 120 h"
prefix_operator = "="
measurement = 4.03

[[record]]
compound = "Cc1cc(/C=C/C#N)cc(C)c1Oc1nc(Nc2ccc(CN3CCN(S(C)(=O)=O)CC3)cc2)nc2ccsc12"
quantity_name = "CC50 at 120 h"
prefix_operator = "="
measurement = 20.7

[[record]]
compound = "Cc1cc(/C=C/C#N)cc(C)c1Oc1nc(Nc2ccc(CN3CCN(S(C)(=O)=O)CC3)cc2)nc2sccc12"
quantity_name = "CC50 at 120 h"
prefix_operator = "="
measurement = 131

[[record]]
compound = "Cc1cc(/C=C/C#N)cc(C)c1Oc1nc(Nc2ccc(N3CCNCC3)cc2)nc2ccsc12"
quantity_name = "CC50 at 120 h"
prefix_operator = "="
measurement = 5.73

[[record]]
compound = "Cc1cc(/C=C/C#N)cc(C)c1Oc1nc(Nc2ccc(N3CCNCC3)cc2)nc2sccc12"
quantity_name = "CC50 at 120 h"
prefix_operator = "="
measurement = 4.74

[[record]]
compound = "Cc1cc(/C=C/C#N)cc(C)c1Oc1nc(Nc2ccc(N3CCCC(NS(C)(=O)=O)C3)cc2)nc2sccc12 (configuration not stated)"
quantity_name = "CC50 at 120 h"
prefix_operator = "="
measurement = 112

[[record]]
compound = "Cc1cc(/C=C/C#N)cc(C)c1Oc1nc(Nc2ccc(N3CCN(S(N)(=O)=O)CC3)cc2)nc2ccsc12"
quantity_name = "CC50 at 120 h"
prefix_operator = ">"
measurement = 223

[[record]]
compound = "Cc1cc(/C=C/C#N)cc(C)c1Oc1nc(Nc2ccc(CN3CCN(S(N)(=O)=O)CC3)cc2)nc2ccsc12"
quantity_name = "CC50 at 120 h"
prefix_operator = "="
measurement = 145

[[record]]
compound = "Cc1cc(C#N)cc(C)c1Oc1nc(Nc2ccc(C#N)cc2)nc(N)c1Br"
quantity_name = "CC50 at 120 h"
prefix_operator = ">"
measurement = 4.59

[[record]]
compound = "Cc1cc(/C=C/C#N)cc(C)c1Oc1nc(Nc2ccc(N3CCCC(NS(N)(=O)=O)C3)cc2)nc2sccc12 (configuration not stated)"
quantity_name = "CC50 at 120 h"
prefix_operator = ">"
measurement = 218

[[record]]
compound = "Cc1cc(/C=C/C#N)cc(C)c1Oc1nc(Nc2ccc(N3CCCC(N)C3)cc2)nc2sccc12 (configuration not stated)"
quantity_name = "CC50 at 120 h"
prefix_operator = "="
measurement = 4.61

